Biological target: HLA-A*02:01 (Homo sapiens, UniProt P04439, D140Y/D185E/D98H/E176V/E277Q/G131W/G231S/I119V/I121R/I166T/I218V/L300P/L318F/N151K/N90K/P208A/P217A/Q86G/Q94H/R138H/R169H/T345S)
Experiment: MHC binding assay: UV-ligand exchange with β2m ELISA
Conditions: binding to HLA-A*02:01, UV-ligand exchange
Source text: Candidate peptides for T cell based therapies according to the present invention were further tested for their MHC binding capacity (affinity). The individual peptide-MHC complexes were produced by UV-ligand exchange, where a UV-sensitive peptide is cleaved upon UV-irradiation, and exchanged with the peptide of interest as analyzed. Only peptide candidates that can effectively bind and stabilize the peptide-receptive MHC molecules prevent dissociation of the MHC complexes. […]
Square brackets hold non-standard residues; d marks the D form. Ends that are not written are not given here. pT = C[C@@H](OP(=O)(O)O)[C@H](N)C(=O)O
Readout kind: Peptide Exchange (peptide exchange yield)

Below: 6 sequences and their reported Peptide Exchange (peptide exchange yield).
Entry sequence	Result
GLLGFQAEA (listed as Homo sapiens) [SEQ ID NO: 24, HLA-A*02 peptide, source gene MAGED1]	“++++” (≥75% = ++++)
SLAEPRVSV (listed as Homo sapiens) [SEQ ID NO: 27, HLA-A*02 peptide, source gene FASN]	“+++” (≥50 = +++)
GLLPTSVSPRV (listed as Homo sapiens) [SEQ ID NO: 11, HLA-A*02 peptide, source gene SCUBE2]	“++” (≥20% = ++)
LLMUVAGLKL (LLM[pT]VAGLKL; listed as Homo sapiens) [SEQ ID NO: 38, HLA-A*02 peptide, source gene PCNXL3; U = phospho-threonine]	“++++” (≥75% = ++++)
ILTELPPGV (listed as Homo sapiens) [SEQ ID NO: 33, HLA-A*02 peptide, source gene ZNF407]	“++” (≥20% = ++)
ALAGSSPQV (listed as Homo sapiens) [SEQ ID NO: 2, HLA-A*02 peptide, source gene CNTD2]	“+++” (≥50 = +++)

q: Reported Peptide Exchange (peptide exchange yield), sequence FLDEEVKLI (listed as Homo sapiens) [SEQ ID NO: 43, HLA-A*02 peptide, source gene FTL] : ____
a: “+++” (≥50 = +++)

q: Reported Peptide Exchange (peptide exchange yield), sequence SLVEGEAVHLA (listed as Homo sapiens) [SEQ ID NO: 4, HLA-A*02 peptide, source genes TFAP2E, TFAP2A, TFAP2B, TFAP2C] : ____
a: “++” (≥20% = ++)

q: Reported Peptide Exchange (peptide exchange yield), sequence FIIPTVATA (listed as Homo sapiens) [SEQ ID NO: 7, HLA-A*02 peptide, source gene ABCC11] : ____
a: “++++” (≥75% = ++++)

* * *

molecular target: HLA-A*02:01 (Homo sapiens, UniProt P04439, D140Y/D185E/D98H/E176V/E277Q/G131W/G231S/I119V/I121R/I166T/I218V/L300P/L318F/N151K/N90K/P208A/P217A/Q86G/Q94H/R138H/R169H/T345S); test: MHC binding assay: UV-ligand exchange with β2m ELISA; conditions: binding to HLA-A*02:01, UV-ligand exchange
Readout kind: Peptide Exchange (peptide exchange yield)

Entry sequence	Result
SLLTEPALV (listed as Homo sapiens) [SEQ ID NO: 21, HLA-A*02 peptide, source gene TBC1D9]	“+++” (≥50 = +++)
ALTALQNYL (listed as Homo sapiens) [SEQ ID NO: 6, HLA-A*02 peptide, source gene TFAP2B]	“+++” (≥50 = +++)
SLAWDVPAA (listed as Homo sapiens) [SEQ ID NO: 26, HLA-A*02 peptide, source gene FASN]	“+++” (≥50 = +++)
